- Subject of test: T1, huNav1.7α+β1 (human, UniProt Q15858 1-1988; Q07699 19-218)
- T1 construct: also called huNav1.7-beta1; HEKa/β1
- Method notes: binding FACS, HEKa/β1 cells
Result type: EC50

Binder | Result type | Result
F010301461 (VHH, also called F0103275B05(S33R, S50Y, S56D, N93R)) VHH: EVQLVESGGGLVQPGGSLRLSCAASGSIFNINRMAWYRRAPGKQRELVAYSTNGGDTNYADSVKGRFTISRDNAKRVYLQMNSLTPEDTAVYYCRALLQPSIYDISRTYWGQGTLVTVSS | EC50 | 21 nM
F010300659 (VHH, also called F0103275B05(S27P, I28V, S50Y, N53P, G55W, S56D, T57W, N93R, A94W)+FLAG3-HIS6) VHH: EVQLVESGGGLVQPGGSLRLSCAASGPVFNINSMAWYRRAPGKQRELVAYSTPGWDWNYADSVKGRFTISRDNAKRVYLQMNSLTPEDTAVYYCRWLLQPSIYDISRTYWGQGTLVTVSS | EC50 | 27 nM
F010300948 (VHH, vs F0103275B05: S27P, I28V, S33R, N53P, N93R, A94W, T101I) VHH: EVQLVESGGGLVQPGGSLRLSCAASGPVFNINRMAWYRRAPGKQRELVASSTPGGSTNYADSVKGRFTISRDNAKRVYLQMNSLTPEDTAVYYCRWLLQPSIYDISRIYWGQGTLVTVSS | EC50 | 68 nM
F010301460 (VHH, vs F0103275B05: S27P, I28V, S33R, S50Y, N53P, N93R) VHH: EVQLVESGGGLVQPGGSLRLSCAASGPVFNINRMAWYRRAPGKQRELVAYSTPGGSTNYADSVKGRFTISRDNAKRVYLQMNSLTPEDTAVYYCRALLQPSIYDISRTYWGQGTLVTVSS | EC50 | 26 nM
